# Tested on: Saccharomyces cerevisiae
# PROTOCOL_TEXT: protein stability index of tFT-peptide fusion in wild type (PSI (0-1 scale)); higher = more stable (slower turnover)
# CONDITION_DESCRIPTION: genetic background: wild type
Please use True whenever protein stability index is not below 0.3, and False whenever it is.

The examples below pair each entry with its known result.
Q: Kindly determine if protein stability index recorded for `FSMMWTFRYWVN` is above or exactly 0.3.
Result: False

Q: Is protein stability index for `LKILRQQMNHQN` at or above 0.3?
Result: False

Q: Does protein stability index meet or surpass 0.3 for `FSMRWTFPYWVN` ?
Result: False

Q: Is protein stability index at least 0.3? Consider `KKHKKGQKQKINS`
Result: False

Q: Please tell me: is the sequence `FSARWTFRYWVN` at or over 0.3 in terms of protein stability index?
Result: False

Further cases:
Q: Please tell me: is the sequence `LVVYLSCVATIN` at or over 0.3 in terms of protein stability index?
Result: False

Q: Threshold query (protein stability index >= 0.3) on `CTSCGYWFRTNN`
Result: True

Q: Would you say `RSLRVLLILYFR` shows protein stability index at minimum 0.3?
Result: False

Q: hey, is protein stability index for this one >= 0.3? `PDKRNHLIKLLNR`
Result: True

Q: // inclusive: protein stability index at least 0.3? input: `RLIQELPVQFLN`
Result: False

Q: Would you say `AITLPMFPLLLR` shows protein stability index at minimum 0.3?
Result: False

Q: Could you please find out whether `FSMRWTFRYWIN` has protein stability index that meets 0.3 or exceeds it?
Result: False

Q: Does the reported protein stability index for `PDHRNHLIKLLN` fall at or above the 0.3 mark?
Result: False

Q: # bool: protein stability index of `AITLPVCPLLLR` >= 0.3
Result: False

Q: Evaluate `CTSCGYKFTTNN` : protein stability index at minimum 0.3?
Result: True

====

# System: Saccharomyces cerevisiae
# PROTOCOL_TEXT: protein stability index of tFT-peptide fusion (C-terminal peptide) (PSI (0-1 scale)); higher = more stable (slower turnover)
# CONDITION_DESCRIPTION: genetic background: wild type; temperature: 30 C
Entries annotated with measured protein stability index
Form rule: numeric answer, no unit written next to it.

The reported value for `PRLPLPPPPLPL` in terms of protein stability index is 0.683

get_value(item= `KKKKKKKRNGAP` , readout=protein stability index) returns 0.667

Measured protein stability index of `VVRSIVVYTCVF` : 0.352

Further cases:
Query `RLLYGICLLGAS` yields protein stability index of 0.558

The recorded protein stability index for `LGVGGRWVGPGA` is 0.722

====

# Test system: Saccharomyces cerevisiae
# PROTOCOL_TEXT: protein stability index of tFT-peptide fusion (C-terminal peptide) (PSI (0-1 scale)); higher = more stable (slower turnover)
# CONDITION_DESCRIPTION: genetic background: wild type; temperature: 30 C
Items are presented alongside their recorded protein stability index.
Just the number, please.

Worked examples follow.
`PPPPAPPVPLPL` yielded protein stability index of 0.693

Record `ARVAGECRCGRT` . Reported protein stability index: 0.655

Quick note, protein stability index for `AYGVGQERWVRE` landed at 0.725

For this sequence ( `TKPTRPVSPTHL` ), measured protein stability index is 0.693

get_value(item= `PASFAYRTLNMV` , readout=protein stability index) returns 0.661

Reported protein stability index for `SLFHTSLAYSFF` was 0.714

Per the records, this sequence ( `SLEACYCFVVLV` ) has protein stability index equal to 0.274

So, `LHRCRPPCSIHL` ? Its protein stability index was 0.816

What the record says about `SVTPSPPPSRPF` : protein stability index is 0.678

Memo: `WSREGGVVESVG` , reported protein stability index: 0.709

***
Record summary for `SLPPALPLPLSH` : reported protein stability index = 0.64

// field: protein stability index; key: `DLSSFGRLGCQG` ; value = 0.871

Reported protein stability index ( `AHVDWRLPEPNR` ) = 0.717

Input `HRLWAGWGLEQC` . Output protein stability index: 0.712
